molecular target: Ferritin light chain (Equus caballus); assay: qHTS Validation Assay for Identification of Novel General Anesthetics (AID 2323); conditions: horse apoferritin, anesthetic-site fluorescent probe displacement; series mostly up to 76.9 µM
Records with an inconclusive call do not appear. Active and inactive are the calls of the source. Calls follow the shape of the dose curve; as a rule, active = well fitted curve in the direction sought with a large enough effect; inconclusive = small, poorly fitted or top-dose-only effect, or another doubt; inactive = no such curve, though single readings can be large or run the other way.
measured-parameter: outcome

Request: outcome, test system Ferritin light chain (Equus caballus), entry CCN(CC)CCNC(=O)c1ccc(NC(C)=O)cc1 inactive

Lab note: need outcome with Ferritin light chain (Equus caballus) for entry OCCN1CCN(CC/C=C2/c3ccccc3Sc3ccc(C(F)(F)F)cc32)CC1 , please look it up. inactive

Given the entry OC(CCN1CCCCC1)(c1ccccc1)C1CCCCC1 (configuration not stated) , what outcome was observed with Ferritin light chain (Equus caballus)? inactive

Notebook entry, Ferritin light chain (Equus caballus) assay: outcome of CCN1CCC[C@H]1CNC(=O)c1c(O)c(Cl)cc(Cl)c1OC = ? inactive

Requested read-out outcome, target or system Ferritin light chain (Equus caballus), entry CSc1ccc(C(=O)c2[nH]c(=O)[nH]c2C)cc1 inactive

Next:
GET /values?readout=outcome&system=Ferritin light chain (Equus caballus)&item= COc1cc(Cc2cnc(N)nc2N)cc(OC)c1OC inactive

# returns recorded outcome (system: Ferritin light chain (Equus caballus)) for CCc1c(C)[nH]c2c1C(=O)C(CN1CCOCC1)CC2 (configuration not stated) inactive

Item: CC(C)NNC(=O)c1ccncc1 Test system: Ferritin light chain (Equus caballus) Read-out: outcome Value: ? inactive

Hello, I am looking for reported outcome with Ferritin light chain (Equus caballus) for CNC1(C)C2CCC(C2)C1(C)C (configuration not stated) . Could you help? inactive

Write down the reported outcome of CCCNC(C)C(=O)Nc1ccccc1C (configuration not stated) , test system: Ferritin light chain (Equus caballus). inactive

Could you share what outcome was measured for C(=C\c1ccccc1)/CN1CCN(C(c2ccccc2)c2ccccc2)CC1 , tested on Ferritin light chain (Equus caballus)? inactive

Please provide the recorded outcome for CC(C)COCC(CN(Cc1ccccc1)c1ccccc1)N1CCCC1 (configuration not stated) , tested on Ferritin light chain (Equus caballus). inactive
